test system: MOLT-4 leukemia; assay: NCI tumour cell line growth inhibition, 48 h; in the data active = GI50 below about 0.43 µM; inactive = the rest
Labels: active, inactive

molecule | discrete.label
COc1ccccc1CNCCCN1C(=O)c2ccc3c4c(ccc(c24)C1=O)C(=O)N(CCCNCCCCN)C3=O | active
CC[C@]1(O)C[C@@H]2CN(CCc3c([nH]c4ccccc34)[C@@](C(=O)OC)(c3cc4c(cc3OC)N(C)[C@H]3[C@@](O)(C(=O)OC)[C@H](OC(=O)CCCBr)[C@]5(CC)C=CCN6CC[C@]43[C@@H]65)C2)C1 | active
C#CCN(CCCOc1ccc(Cl)cc1Cl)CCCSC(=O)CCCCCN1/C(=C\C=C2/CCCC(/C=C/C3=[N+](CCCCCC(=O)[O-])c4ccccc4C3(C)C)=C2Cl)C(C)(C)c2ccccc21 | inactive
CCCCCCC1CCCCN1C(c1ccccc1)C(O)c1ccccc1 (configuration not stated) | inactive
COc1ccc([C@H]2c3[nH]c4ccccc4c3C[C@H]3C(=O)N(CCCCCCC(=O)NO)CC(=O)N23)cc1 | inactive
O=C([CH-]C(=O)c1ccccc1)c1ccccc1.[CH2-]C.[CH2-]C.[Tl+3] | inactive
CC(C)(C)OC(=O)CC(S(=O)(=O)c1ccccc1)S(=O)(=O)c1ccccc1 | inactive

----------
TGI reference
system: A549 NSCLC; assay: NCI tumour cell line growth inhibition, 48 h

molecule | TGI
O=C(Cn1ccnc1[N+](=O)[O-])NCc1ccc(F)cc1 | > 100 µM
CC1(C)N=C(N)N=C(N)N1c1ccc(CCCCCCc2ccc(S(=O)(=O)F)cc2)cc1 | 2.76 µM
Clc1cc(Cl)cc(Nc2ccc3c(OCCCN4CCOCC4)cccc3n2)c1 | 6.87 µM
O=C(CC/C(CC(=O)c1ccc(Cl)cc1)=N\O)Nc1cccc(Cl)c1 | > 100 µM
CC(C)(C)OC(=O)N1CCC2(CC1)C(=O)NCN2c1ccccc1 | > 100 µM
CC1(c2ccc(Cl)cc2)c2ccccc2C(=O)N1CCCN1C(=O)c2ccccc2C1=O (stereo not given) | > 100 µM
Cc1ccc(-n2cc(/C(N)=N/O)c3ccccc3c2=O)cc1 | > 100 µM
CN(C)c1ccc(/C=C2\N=C(c3ccccc3)N(c3nc4ccc(Sc5ccccc5)cc4[nH]3)C2=O)cc1 | > 100 µM
C=C(/C=C/C=C(\CO)CCC=C(C)C)[C@H]1CCC2([C@H](CCCO)/C(=C(/C)C=O)CC[C@]2(C)O)[C@H]1O (stereo not given in full) | > 100 µM
COc1cc([N+](=O)[O-])c(S(=O)(=O)O)cc1-[n+]1nc(C(=O)Nc2ccccc2)nn1-c1ccc([N+](=O)[O-])c(S(=O)(=O)[O-])c1 | > 100 µM
O=S1(=O)CS(=O)(=O)OCCCCCO1 | > 100 µM
CN=C1C=C(/N=C2/C=C(N/C(=C\C#N)C(C)(C)O)OC2(C)C)OC1(C)C | > 100 µM
Cc1cc(C)nc(NS(=O)(=O)c2ccc(NC(=O)c3ccc4nc5ccccc5c(Nc5ccc(S(=O)(=O)N=C(N)N)cc5)c4c3)cc2)n1 | > 100 µM
O=c1[nH]c2ccccc2c(=O)n1/N=C\c1ccccc1O | > 100 µM
COc1ccc(-c2nc3sccn3c2/C=C/C(=O)c2cc(OC)c(OC)c(OC)c2)cc1 | > 22.9 µM
COc1cc2c(cc1OC)C(C1CC1)ON(C)CC2 (stereo not given) | > 100 µM
Cc1ccc(/C=C2\CCCC(C(NO)c3ccc(C)cc3)C2=NO)cc1 (stereo not given) | > 100 µM
COC(=O)c1sc2c(Cl)c(Cl)sc2c1Cl | > 100 µM
Cc1cc(C)n(C(=CC(=O)C(Cl)Cl)n2nc(C)cc2C)n1 | 67 µM
O=C(O)C1C2OC(C(Br)C2Br)C1C(=O)O (stereo not given) | > 100 µM

Measured values drawn from PubChem BioAssay (NCI) for this set.
